Quantity name: Ki
Show the value, then the unit it is measured in.

Req: Enter recorded Ki with 5-hydroxytryptamine receptor 2A (Rattus norvegicus) for "CN(C)CCC=C1c2ccccc2CCc2ccccc21" here.
Sequence (P14842 whole entry): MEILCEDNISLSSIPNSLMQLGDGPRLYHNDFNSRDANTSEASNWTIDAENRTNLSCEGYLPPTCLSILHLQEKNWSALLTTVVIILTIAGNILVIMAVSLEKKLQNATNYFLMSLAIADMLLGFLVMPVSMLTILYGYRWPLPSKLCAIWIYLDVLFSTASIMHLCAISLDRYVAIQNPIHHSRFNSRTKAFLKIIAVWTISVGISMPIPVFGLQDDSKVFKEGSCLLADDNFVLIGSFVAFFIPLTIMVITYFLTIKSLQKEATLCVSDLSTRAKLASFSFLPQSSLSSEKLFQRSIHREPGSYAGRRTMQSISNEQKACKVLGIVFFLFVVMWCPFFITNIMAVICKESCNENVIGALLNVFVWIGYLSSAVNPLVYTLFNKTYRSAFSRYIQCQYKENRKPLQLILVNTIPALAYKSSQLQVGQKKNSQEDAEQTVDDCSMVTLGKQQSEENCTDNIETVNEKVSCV
Resp: 4.3 nM

###

Structures can show the parent of a compound that is named as a salt.
# Ki per entry for 5-hydroxytryptamine receptor 2C (Rattus norvegicus)
Show the value, then the unit it is measured in.

Req: State, in one line, measured Ki of "CN(C)CCC=C1c2ccccc2CCc2ccccc21"
Resp: 4.3 nM

Req: State, in one line, measured Ki of "CN(C)C/C=C(/c1ccc(Br)cc1)c1cccnc1"
Resp: 1000 nM

Req: State, in one line, measured Ki of "C#CCN(C)CCCOc1ccc(Cl)cc1Cl"
Resp: 1000 nM

Req: State, in one line, measured Ki of "O=c1n(CCCN2CCN(c3cccc(Cl)c3)CC2)nc2ccccn12"
Resp: 193 nM

Req: State, in one line, measured Ki of CN(C)CCCC1(c2ccc(F)cc2)OCc2cc(C#N)ccc21 (stereo not given) [CITALOPRAM HYDROBROMIDE]
Resp: 269 nM

Values compiled from BindingDB's records for doi:10.1007/bf02246453.
